Consider the following compounds and their measured TGI readings.
Tested on: SK-OV-3 ovarian
experiment: NCI tumour cell line growth inhibition, 48 h

Sample records with TGI:
CNC(=S)NNC1=NCCCCN1 ... > 100 µM
CCCCCCCCCCCC(=O)OCC1OC(n2cc(F)c(=O)[nH]c2=O)C(N)C(O)C1O (stereo unspecified) ... > 100 µM
Cc1cc(NCC2CC/C(=C\C=C\c3ccccc3)C2=O)no1 (stereo unspecified) ... > 100 µM
COc1cnc2c(c1)C(=O)c1c-2n(CCCN2CCN(C)CC2)c(=O)c2cc(Cl)ccc12 ... 36.4 µM
CCN(CC)CCOc1cc2c(C(=O)OC)c(C)oc2cc1C(C)=O ... 30.2 µM
CC(=C(C(=O)O)C(=O)O)c1cc(-c2cccs2)cc(-c2ccc(Cl)cc2)c1O ... > 82.5 µM
COc1ccc(OC)c2cc(C3(C)SCCCS3)ccc12 ... > 100 µM
O=Cc1ccc2c(c1)CC1(C2)Cc2ccc(C=O)cc2C1 ... > 100 µM
Cc1ccccc1NC(=O)/C(C#N)=N\Nc1nc[nH]c1C(N)=O ... > 100 µM
CCO/C(O)=C(/C(=N)N1CCCC1)C(=O)Nc1ccc(Cl)cc1 ... > 100 µM

Shifting focus to the compound that follows.
Field request: TGI | item: COc1ccccc1NC(=O)C1=C(C)NC(C)=C(C(=O)Nc2ccccc2OC)C1c1ccccc1OC
> 100 µM

---

Test system: RXF 393 renal
experiment: NCI tumour cell line growth inhibition, 48 h
property_measured: GI50

Sample records with GI50:
COC(=O)Nc1nc2ccc(Oc3ccc(NC(=O)Nc4cccc(Cl)c4)cc3)cc2[nH]1 ... 445 nM
Cc1ccc(S(=O)(=O)n2cc(C(=O)C(=O)Nc3ccncc3)c3ccccc32)cc1 ... 2700 nM
COc1cccc2c1c1nc3cc(C)c(C)cc3nc1n2CCN(C)C ... 1590 nM
CC(C)=CCC/C(C)=C/CC/C(=C/COP(=O)(OCc1ccc([N+](=O)[O-])o1)N(C)CCCCCl)C(C)(C)C (stereo not drawn) ... 7840 nM
CCOn1cc(C2=C(c3c[nH]c4ccccc34)C(=O)NC2=O)c2ccccc21 ... < 32.5 nM

Field request: GI50 | item: C[C@]12CCC(=O)C=C1CC[C@@H]1[C@@H]2CC[C@]2(C)C(=O)/C(=C/c3cccc(OCCN4CCOCC4)c3)C[C@@H]12
5620 nM

Field request: GI50 | item: Cc1ccc2sc3c(NCCCNCCO)nc4ccccc4c3c(=O)c2c1
1500 nM

---

Test system: KM12 colon
experiment: NCI tumour cell line growth inhibition, 48 h
Consider the following compounds and their measured TGI readings.

Sample records with TGI:
CCO/C(O)=C(/C(=N)N1CCCC1)C(=O)Nc1ccc(Cl)cc1 ... > 100 µM
CC(=O)OCC1OC(S[As](C)C)C(OC(C)=O)C1OC(C)=O (stereo not given) ... 13.6 µM
C=C1CC(COc2ccc3ccc(=O)oc3c2)(c2ccccc2)OC1=O (stereo not given) ... 13.5 µM

Field request: TGI | item: O=c1c2c3c(sc2nc2n1N=CN(c1ccc(Cl)cc1)C2)CCCC3
> 100 µM

Field request: TGI | item: O=C(O)CCSc1nnc(COc2ccc(Cl)cc2)n1-c1ccccc1
> 100 µM

Field request: TGI | item: CCNc1nc(N2CC(=O)Nc3cc(OC)ccc32)c2ccccc2n1
> 100 µM

Field request: TGI | item: O=C(/C=C\Sc1nccc(C(F)(F)F)n1)c1ccc(Br)cc1
> 100 µM

Field request: TGI | item: CC1=CCC[C@]2(C)C1=CC(=O)O[C@H]2c1ccoc1
> 100 µM

Field request: TGI | item: Cn1cc(C2=C(c3c4n(c5ccccc35)CCC(CN)CC4)C(=O)NC2=O)c2ccccc21 (stereo not given)
7.39 µM

Field request: TGI | item: CC(C)C(Cl)CC/C(CBr)=C(\Cl)CCl (stereo not given)
16.4 µM

Field request: TGI | item: COc1ccc(CCN(C)C(=O)CC(C#N)(c2ccccc2)c2ccc(OC)c(OC)c2)cc1OC (stereo not given)
> 100 µM

Field request: TGI | item: COC1/C=C\OC2(C)Oc3c(C)c(O)c4c(O)c(c(CN(C)C)c(O)c4c3C2=O)NC(=O)/C(C)=C\C=C/C(C)C(O)C(C)C(O)C(C)C(OC(C)=O)C1C (stereo not given)
99.6 µM
